- Tested on: AncSZ
- protocol: phosphorylation enrichment, bacterial display (enrichment ratio); higher = better substrate or ligand; peptides without Tyr show the background
Assign MET to entries whose phosphorylation enrichment meets or exceeds 1; assign NOT MET to the rest.

- query.sequence: "QADVVYVNTQL [MERTK_Y872_I871V]"
  class: "NOT MET"

Here is another sequence to look at.
Prompt line: # check: phosphorylation enrichment of EDAHHYLCKEV [JAK2_Y382_A377E] is greater than or equal to 1
Response line: NOT MET

----------
- target.entity: Hck (UniProt P08631)
- Sequence (P08631 whole entry, looked up): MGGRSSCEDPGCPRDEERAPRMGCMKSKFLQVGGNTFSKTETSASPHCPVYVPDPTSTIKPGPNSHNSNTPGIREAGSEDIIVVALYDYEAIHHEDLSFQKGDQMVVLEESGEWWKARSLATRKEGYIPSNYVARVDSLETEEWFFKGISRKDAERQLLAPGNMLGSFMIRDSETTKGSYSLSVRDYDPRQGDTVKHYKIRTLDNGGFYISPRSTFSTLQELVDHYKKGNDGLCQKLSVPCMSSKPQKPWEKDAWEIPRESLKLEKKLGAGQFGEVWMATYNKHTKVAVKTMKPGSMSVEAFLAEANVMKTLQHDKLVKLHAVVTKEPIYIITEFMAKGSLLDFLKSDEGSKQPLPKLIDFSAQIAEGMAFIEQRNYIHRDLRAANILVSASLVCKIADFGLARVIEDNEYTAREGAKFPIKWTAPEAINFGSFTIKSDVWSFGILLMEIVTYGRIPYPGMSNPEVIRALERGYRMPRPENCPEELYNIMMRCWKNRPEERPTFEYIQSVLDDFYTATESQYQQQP
- protocol: phosphorylation enrichment, bacterial display (enrichment ratio); higher = better substrate or ligand; peptides without Tyr show the background
experimental.readout: phosphorylation enrichment

- query.sequence: "VDSLRYIFPKL [EIF2B3_Y92_A87V_YF]"
  phosphorylation enrichment: 0.385
- query.sequence: "LHQSTYQRFDV [SLC7A14_Y693_YF]"
  phosphorylation enrichment: 1.77
- query.sequence: "TDHLRYFDSNK [ARAP1_Y359]"
  phosphorylation enrichment: 0.451
- query.sequence: "VATRWYRSPEL [CDKL5_Y177]"
  phosphorylation enrichment: 0.482
- query.sequence: "PRAEWYRDDLL [MYOM2_Y317_V321L]"
  phosphorylation enrichment: 0.681
- query.sequence: "HLPAGYIIPLQ [GAA_Y822_R819P]"
  phosphorylation enrichment: 0.491
- query.sequence: "ECKASYPGKIT [PRSS3_Y232]"
  phosphorylation enrichment: 0.323
- query.sequence: "AGQEDDDRLRP [RAC1_Y64_Y64D]"
  phosphorylation enrichment: 0.591

Parameters: items (list). Returns: phosphorylation enrichment for each item.
1. CLLHCYFSQIH [MCM3AP_Y873_R878H]
2. KRELRYMHSRV [ABCD1_Y281_G277R]
3. GDLTDYLMKIL [ACTA1_Y190_R185G]

Response line:
1. 0.476
2. 0.381
3. 0.453

----------
Exercise: state measured phosphorylation enrichment for each of the sequences provided.
- target.entity: EPHB1 (UniProt P54762)
- Sequence (P54762 whole entry, looked up): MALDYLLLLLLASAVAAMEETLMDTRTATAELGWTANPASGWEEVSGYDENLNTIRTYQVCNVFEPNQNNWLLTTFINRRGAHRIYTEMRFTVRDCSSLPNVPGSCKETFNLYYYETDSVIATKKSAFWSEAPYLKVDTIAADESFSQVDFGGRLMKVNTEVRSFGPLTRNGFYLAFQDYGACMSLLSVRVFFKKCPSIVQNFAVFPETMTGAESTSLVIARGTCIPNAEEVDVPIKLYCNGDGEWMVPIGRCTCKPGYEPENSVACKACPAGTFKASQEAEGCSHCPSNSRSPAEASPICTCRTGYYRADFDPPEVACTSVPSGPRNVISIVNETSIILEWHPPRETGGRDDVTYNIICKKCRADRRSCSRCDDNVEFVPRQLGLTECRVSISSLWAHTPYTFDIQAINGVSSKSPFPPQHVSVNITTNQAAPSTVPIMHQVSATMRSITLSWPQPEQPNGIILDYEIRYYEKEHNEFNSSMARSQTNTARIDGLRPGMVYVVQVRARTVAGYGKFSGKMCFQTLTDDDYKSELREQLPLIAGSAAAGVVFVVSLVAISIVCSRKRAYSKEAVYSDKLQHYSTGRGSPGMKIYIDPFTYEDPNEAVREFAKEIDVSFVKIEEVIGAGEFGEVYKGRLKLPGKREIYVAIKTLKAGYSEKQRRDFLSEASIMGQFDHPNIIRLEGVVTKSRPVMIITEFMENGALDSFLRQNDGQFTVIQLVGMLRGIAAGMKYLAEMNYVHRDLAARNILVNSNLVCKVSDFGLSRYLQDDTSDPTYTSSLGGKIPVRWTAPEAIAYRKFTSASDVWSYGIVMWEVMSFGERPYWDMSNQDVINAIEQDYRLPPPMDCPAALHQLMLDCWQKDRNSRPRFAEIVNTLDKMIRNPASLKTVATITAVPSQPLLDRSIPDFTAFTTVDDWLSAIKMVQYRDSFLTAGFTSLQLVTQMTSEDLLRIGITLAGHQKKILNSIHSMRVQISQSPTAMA
- protocol: phosphorylation enrichment, bacterial display (enrichment ratio); higher = better substrate or ligand; peptides without Tyr show the background
One number for each entry.

Worked cases, phosphorylation enrichment given:
- query.sequence: "RRDRDYTNLPS [CSF1R_Y923_E920D]"
  phosphorylation enrichment: 0.604
- query.sequence: "TEALFYTDDPA [ADPRS_Y75_T79P_YF]"
  phosphorylation enrichment: 1.05
- query.sequence: "QCTSDYPEHVC [SART3_Y541]"
  phosphorylation enrichment: 0.929
- query.sequence: "FRPHLYGTPSR [ADGRE2_Y670_S665F]"
  phosphorylation enrichment: 0.481
- query.sequence: "KFLENYLNRLL [PLD2_Y169_YF]"
  phosphorylation enrichment: 0.464

List the reported phosphorylation enrichment of each sequence below.
1. ETGEPYRLSPE [EIF4G1_Y311]
2. LAVGDYMRRQK [ATM_Y1915_V1913G]

Response line:
0.733
0.441

Briefly, phosphorylation enrichment measured for ESLRPYDVMDV [KCNQ2_Y562] : 0.583

----------
- target.entity: Grb2 SH2 (UniProt P62993)
- Sequence (P62993 whole entry, looked up): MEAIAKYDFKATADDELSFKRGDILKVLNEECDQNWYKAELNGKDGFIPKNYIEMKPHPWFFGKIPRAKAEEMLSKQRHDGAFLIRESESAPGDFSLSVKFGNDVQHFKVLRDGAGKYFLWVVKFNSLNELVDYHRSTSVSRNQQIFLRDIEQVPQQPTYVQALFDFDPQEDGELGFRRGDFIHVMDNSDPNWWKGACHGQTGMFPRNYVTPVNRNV
- protocol: SH2 binding enrichment of the phosphorylated peptide, bacterial display (enrichment ratio); higher = better substrate or ligand; peptides without Tyr show the background
experimental.readout: SH2 binding enrichment
Answers are plain numbers.

- query.sequence: "ENEGTYVCIAA [ADAMTSL3_Y1365_T1370A]"
  SH2 binding enrichment: 0.471
- query.sequence: "LASLIYNFVLF [AQP6_Y231]"
  SH2 binding enrichment: 1.11
- query.sequence: "SVVVTYEPPEV [TP53_Y220_P219T]"
  SH2 binding enrichment: 0.722

List reported SH2 binding enrichment for each of these sequences:
1. PAVGIYNDNIN [CDCP1_Y707]
2. VMSGPYELKAL [IL1B_Y140]

Response line:
[0.749, 0.92]
